Biological target: rhAOC1 (Homo sapiens, UniProt P19801)
Construct: purchased R&D
Sequence (P19801 20-751): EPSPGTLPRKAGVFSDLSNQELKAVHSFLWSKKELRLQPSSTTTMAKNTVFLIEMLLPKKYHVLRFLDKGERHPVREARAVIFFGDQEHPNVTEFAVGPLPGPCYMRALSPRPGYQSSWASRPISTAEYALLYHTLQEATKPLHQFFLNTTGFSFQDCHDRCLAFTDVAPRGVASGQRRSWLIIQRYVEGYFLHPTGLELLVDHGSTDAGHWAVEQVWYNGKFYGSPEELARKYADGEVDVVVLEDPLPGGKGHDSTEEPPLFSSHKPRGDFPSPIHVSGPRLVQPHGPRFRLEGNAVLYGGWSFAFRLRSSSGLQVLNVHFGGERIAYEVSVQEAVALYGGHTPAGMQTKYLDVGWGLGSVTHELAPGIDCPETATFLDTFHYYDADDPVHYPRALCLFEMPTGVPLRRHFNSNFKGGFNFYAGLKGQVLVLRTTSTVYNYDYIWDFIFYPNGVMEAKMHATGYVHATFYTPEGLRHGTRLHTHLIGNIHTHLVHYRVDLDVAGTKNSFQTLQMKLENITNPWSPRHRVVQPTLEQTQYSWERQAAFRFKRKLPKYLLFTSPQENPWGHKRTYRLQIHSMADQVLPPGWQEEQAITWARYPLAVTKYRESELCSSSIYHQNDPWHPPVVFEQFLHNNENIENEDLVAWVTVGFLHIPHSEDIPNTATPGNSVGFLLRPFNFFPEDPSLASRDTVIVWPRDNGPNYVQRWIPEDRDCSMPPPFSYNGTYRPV
Test: Selectivity against rhAOC1 enzyme (Biological Example 1)
Assay type: biochemical
Conditions: Table 1; histamine substrate, Amplex Red/HRP
Listed below: IC50 values for each entry.
Reply with just the number (in µM).

| cpdSmiles | unitOfMeasure | IC50 |
| --- | --- | --- |
| NC/C(=C\F)Cn1cc2c(n1)CCN(C1CC1)C2=O | µM | 22.1 |

Switching to the query record.
May I ask what IC50 has been recorded for `NC/C(=C\F)Cn1ccc2cc(C(=O)N3CCOCC3)ccc21` ?
26.9

====

Listed below: Tmax values for each entry.
Assay: Rat PK evaluation
Assay type: in vivo
Conditions: plasma, SD rats, PO 5 mg/kg, n=3, median, read-out: Tmax po (time of maximum observed plasma concentration)
Counter-ions that a name gives are not always drawn.
Reply with just the number (in h).

These solved cases illustrate the format of a correct answer.
| compound | unitOfMeasure | measured |
| --- | --- | --- |
| NC/C(=C\F)Cn1cc2c(=O)n(C3CC3)ccc2n1 [Compound A41] | h | 1 |
| Cl.NC/C(=C\F)Cn1cc2c(c1Cl)CCN(C1CC1)C2=O [Compound A42 hydrochloride] | h | 1 |
| Cl.NC/C(=C\F)Cn1cc2c(c1Br)CCN(C1CC1)C2=O [Compound A32 hydrochloride] | h | 0.25 |
| NC/C(=C\F)Cn1cc2c(n1)CCN(C1CC1)C2=O [Compound A1] | h | 2 |

Switching to the query record.
May I ask what Tmax has been recorded for CCN1CCc2nn(C/C(=C/F)CN)cc2C1=O [Compound A6 hydrochloride] ?
0.5

====

Listed below: clearance values for each entry.
Experiment: Rat PK evaluation
Assay type: in vivo
Details: plasma, SD rats, IV 1 mg/kg, n=3, read-out: Cl_obs iv (clearance rate) (converted)
Counter-ions that a name gives are not always drawn.
Reply with just the number (in mL/min/kg).

| molecule | clearance, mL/min/kg |
| --- | --- |
| Cl.NC/C(=C\F)Cn1cc2c(c1Br)CCN(C1CC1)C2=O [Compound A32 hydrochloride] | 29.2 |
| Cl.NC/C(=C\F)Cn1cc2c(c1Cl)CCN(C1CC1)C2=O [Compound A42 hydrochloride] | 29.5 |
| NC/C(=C\F)Cn1cc2c(n1)CCN(C1CC1)C2=O | 30.8 |
| NC/C(=C\F)Cn1cc2c(=O)n(C3CC3)ccc2n1 | 31.5 |

Switching to the query record.
May I ask what clearance has been recorded for CCN1CCc2nn(C/C(=C/F)CN)cc2C1=O [Compound A6 hydrochloride] ?
37.8

====

Molecular target: MAO-A (Homo sapiens)
Sequence (P21397 whole entry): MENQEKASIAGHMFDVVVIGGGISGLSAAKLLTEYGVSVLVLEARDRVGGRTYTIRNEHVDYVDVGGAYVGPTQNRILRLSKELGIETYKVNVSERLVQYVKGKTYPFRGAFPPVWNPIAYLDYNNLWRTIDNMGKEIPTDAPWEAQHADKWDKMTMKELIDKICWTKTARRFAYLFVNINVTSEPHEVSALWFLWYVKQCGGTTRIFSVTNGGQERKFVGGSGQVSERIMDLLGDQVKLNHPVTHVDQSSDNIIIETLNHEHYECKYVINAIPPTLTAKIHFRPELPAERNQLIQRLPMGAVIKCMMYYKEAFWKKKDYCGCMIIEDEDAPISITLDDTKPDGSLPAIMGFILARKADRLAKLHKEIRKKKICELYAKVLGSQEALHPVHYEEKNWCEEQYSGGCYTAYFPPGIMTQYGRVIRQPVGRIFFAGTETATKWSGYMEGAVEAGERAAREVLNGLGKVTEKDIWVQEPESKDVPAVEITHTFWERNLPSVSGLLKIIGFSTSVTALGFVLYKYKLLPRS
Structures can show the parent of a compound that is named as a salt.
Listed below: pIC50 values for each entry.
Here pIC50 is given on a logarithmic scale as minus log10 of the concentration in mol/L.

| compound | pIC50 |
| --- | --- |
| CCN1CCc2nn(C/C(=C/F)CN)cc2C1=O [Compound A6 hydrochloride] | 4.05 |
| CCn1ccc2c(cnn2C/C(=C/F)CN)c1=O [Compound A29 hydrochloride] | 4.06 |

What value of pIC50 on MAO-A (Homo sapiens) does Cc1c2c(cn1C/C(=C/F)CN)C(=O)N(C1CC1)CC2 [Compound A35 hydrochloride] have?
5.06

What value of pIC50 on MAO-A (Homo sapiens) does Cl.NC/C(=C\F)Cn1cc2c(c1Br)CCN(C1CC1)C2=O [Compound A32 hydrochloride] have?
4.21

What value of pIC50 on MAO-A (Homo sapiens) does NC/C(=C\F)Cn1c(Br)c2c(c1Br)C(=O)N(C1CC1)CC2 [Compound A33 hydrochloride] have?
4.25

What value of pIC50 on MAO-A (Homo sapiens) does Cl.NC/C(=C\F)Cn1cc2c(c1Cl)CCN(C1CC1)C2=O [Compound A42 hydrochloride] have?
4.32

What value of pIC50 on MAO-A (Homo sapiens) does NC/C(=C\F)Cn1ncc2c(=O)n(C3CC3)ccc21 [Compound A44 hydrochloride] have?
4.11

====

Experiment: Rat PK evaluation
Type: in vivo
Details: plasma, SD rats, IV 1 mg/kg, n=3, read-out: AUCinf iv (area under plasma concentration-time curve 0-∞)
Experimental: Animal Administration and Sample Collection: The study compounds A1, A6, A32, A41 and A42 were each dissolved in normal saline to prepare solutions. The solutions of the compounds were separately administered to SD rats by intragastric administration at a dose of 5.0 mg/kg. Time points for blood collection were 15 min, 30 min, 1 h, 2 h, 4 h, 6 h, 8 h and 24 h. The study compounds A1, A6, A32, A41 and A42 were each dissolved in normal saline to prepare solutions. […]
Structures can show the parent of a compound that is named as a salt.
Listed below: AUC(0-inf) values for each entry.
Reply with just the number (in ng·h/mL).

These solved cases illustrate the format of a correct answer.
| molecule | propertyMeasured | measured |
| --- | --- | --- |
| Cl.NC/C(=C\F)Cn1cc2c(c1Br)CCN(C1CC1)C2=O [Compound A32 hydrochloride] | AUC(0-inf) | 572 |
| Cl.NC/C(=C\F)Cn1cc2c(c1Cl)CCN(C1CC1)C2=O [Compound A42 hydrochloride] | AUC(0-inf) | 591 |
| NC/C(=C\F)Cn1cc2c(=O)n(C3CC3)ccc2n1 | AUC(0-inf) | 531 |
| CCN1CCc2nn(C/C(=C/F)CN)cc2C1=O [Compound A6 hydrochloride] | AUC(0-inf) | 445 |

Switching to the query record.
May I ask what AUC(0-inf) has been recorded for `NC/C(=C\F)Cn1cc2c(n1)CCN(C1CC1)C2=O` ?
545

====

Molecular target: rhVAP-1 (Homo sapiens, UniProt Q16853)
Construct: purchased PeproTech
Test: Inhibitory activity against rhVAP-1 enzyme (Biological Example 2)
Format: biochemical
Settings: Table 2; benzylamine substrate, Amplex Red/HRP
Structures can show the parent of a compound that is named as a salt.
Ranges used to classify IC50: band A: < 40 nM; band B: ≥ 40 nM and < 50 nM; band C: ≥ 50 nM

| molecule | studyTarget | classLabel |
| --- | --- | --- |
| Cc1c2c(cn1C/C(=C/F)CN)C(=O)N(C1CC1)CC2 [Compound A35 hydrochloride] | rhVAP-1 (Homo sapiens, UniProt Q16853) | band A |
| CC(C)(C)CN1CCc2nn(C/C(=C/F)CN)cc2C1=O [Compound A37 hydrochloride] | rhVAP-1 (Homo sapiens, UniProt Q16853) | band A |
| CCN1Cc2cnn(C/C(=C/F)CN)c2C1=O [Compound A31 hydrochloride] | rhVAP-1 (Homo sapiens, UniProt Q16853) | band C |
| CC(C)(C)N1CCc2nn(C/C(=C/F)CN)cc2C1=O [Compound A7 hydrochloride] | rhVAP-1 (Homo sapiens, UniProt Q16853) | band B |
| CC(C)(C)N1Cc2nn(C/C(=C/F)CN)cc2C1=O [Compound A13] | rhVAP-1 (Homo sapiens, UniProt Q16853) | band C |

We next turn to a different molecule, shown below.
Kindly identify the class of CCNC(=O)c1cnn(C/C(=C/F)CN)c1 [Compound B2] .
band C

====

Biological target: rhVAP-1 (Homo sapiens)
Construct: purchased PeproTech
Sequence (Q16853 27-763 limits assumed): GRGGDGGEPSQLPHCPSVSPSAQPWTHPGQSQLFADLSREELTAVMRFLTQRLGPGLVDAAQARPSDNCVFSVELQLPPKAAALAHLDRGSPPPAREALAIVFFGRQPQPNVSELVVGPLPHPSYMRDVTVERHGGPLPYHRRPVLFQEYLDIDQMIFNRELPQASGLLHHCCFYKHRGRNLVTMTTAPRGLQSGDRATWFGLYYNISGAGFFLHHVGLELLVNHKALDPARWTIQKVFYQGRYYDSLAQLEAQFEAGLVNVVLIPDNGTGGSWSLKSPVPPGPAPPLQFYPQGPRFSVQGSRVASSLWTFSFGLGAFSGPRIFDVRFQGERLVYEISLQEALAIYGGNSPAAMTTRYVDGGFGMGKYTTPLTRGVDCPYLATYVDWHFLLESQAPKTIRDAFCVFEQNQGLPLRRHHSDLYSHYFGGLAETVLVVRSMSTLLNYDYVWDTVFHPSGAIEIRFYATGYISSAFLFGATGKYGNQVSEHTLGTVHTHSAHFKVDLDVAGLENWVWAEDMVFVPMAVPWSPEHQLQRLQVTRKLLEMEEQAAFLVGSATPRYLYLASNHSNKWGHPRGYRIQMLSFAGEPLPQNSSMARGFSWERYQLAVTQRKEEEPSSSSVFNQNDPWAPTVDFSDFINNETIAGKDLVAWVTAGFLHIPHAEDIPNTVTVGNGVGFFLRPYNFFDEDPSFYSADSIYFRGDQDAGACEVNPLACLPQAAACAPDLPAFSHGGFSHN
Test: Inhibitory activity against rhVAP-1 enzyme (Biological Example 2)
Type: biochemical
Settings: Table 2; benzylamine substrate, Amplex Red/HRP
Where a name gives a salt, the structure may show the parent alone.
propertyMeasured: pIC50
Here pIC50 is given on a logarithmic scale as minus log10 of the concentration in mol/L.

May I ask what pIC50 has been recorded for CCn1ccc2c(cnn2C/C(=C/F)CN)c1=O [Compound A29 hydrochloride] ?
7.22
